Test: Mean residence time in CD1 mouse at 2 mg/kg, iv or 10 mg/kg, po
Assay type: ADME, organism-based
Settings: in vivo
READOUT_LABEL: MRT (h)
All answers are understood in h, so give the number only.

Query: For the compound `N#Cc1cccc(OC(=O)N2CCC(C(c3ccccc3)c3ccccc3)CC2)c1` , report MRT.
Response: 6

---

Molecular target: Cannabinoid receptor 2 (Homo sapiens) (UniProt P34972)
Sequence (P34972 whole entry): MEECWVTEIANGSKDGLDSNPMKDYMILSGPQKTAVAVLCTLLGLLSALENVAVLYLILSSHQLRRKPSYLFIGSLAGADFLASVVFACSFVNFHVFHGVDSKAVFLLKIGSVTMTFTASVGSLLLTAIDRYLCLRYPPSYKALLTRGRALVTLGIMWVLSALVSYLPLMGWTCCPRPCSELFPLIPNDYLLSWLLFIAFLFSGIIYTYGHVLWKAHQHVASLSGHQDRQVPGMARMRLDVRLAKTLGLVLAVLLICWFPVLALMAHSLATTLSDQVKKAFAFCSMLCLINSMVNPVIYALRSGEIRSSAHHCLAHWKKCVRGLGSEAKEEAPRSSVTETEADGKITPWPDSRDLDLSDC
Assay: Displacement of [3H]CP-55,940 from recombinant human CB2 receptor expressed in HEK293 cells at >1 uM after 1 hr by scintillation counting method
Type: cell-based
Calls of active or inactive are those of the source. The rule behind the calls is not given here.
READOUT_LABEL: Activity

Example results:
molecule=N#Cc1cccc(OC(=O)N2CCN(C3CCCCC3)CC2)c1 readout_label=Activity reported_measurement=inactive
molecule=N#Cc1cccc(OC(=O)N2CCC(S(=O)(=O)C(c3ccccc3)c3ccccc3)CC2)c1 readout_label=Activity reported_measurement=inactive
molecule=N#Cc1ccc(F)c(OC(=O)N2CCC(C(c3ccccc3)c3ccccc3)CC2)c1 readout_label=Activity reported_measurement=inactive
molecule=N#Cc1cccc(OC(=O)N2CCC(OC(c3ccccc3)c3ccccc3)CC2)c1 readout_label=Activity reported_measurement=inactive
molecule=CC(C)N1CCN(C(=O)Oc2cccc(C#N)c2)CC1 readout_label=Activity reported_measurement=inactive

Query: Provide Activity, system Cannabinoid receptor 2 (Homo sapiens) (UniProt P34972), entry N#Cc1cccc(OC(=O)N2CCN(C(c3ccccc3)c3cccnc3)CC2)c1 (stereo not given)
Response: inactive

Query: Provide Activity, system Cannabinoid receptor 2 (Homo sapiens) (UniProt P34972), entry `N#Cc1ccnc(OC(=O)N2CCC(C(c3ccccc3)c3ccccc3)CC2)c1`
Response: inactive

Query: Provide Activity, system Cannabinoid receptor 2 (Homo sapiens) (UniProt P34972), entry `N#Cc1cccc(OC(=O)N2CCC(C(c3ccccc3)c3ccccc3)CC2)c1`
Response: inactive

Query: Provide Activity, system Cannabinoid receptor 2 (Homo sapiens) (UniProt P34972), entry `N#Cc1cccc(OC(=O)N2CCC(C(c3ccc(Cl)cc3)c3ccc(Cl)cc3)CC2)c1`
Response: inactive

Query: Provide Activity, system Cannabinoid receptor 2 (Homo sapiens) (UniProt P34972), entry `N#Cc1cc(O)cc(OC(=O)N2CCC(C(c3ccccc3)c3ccccc3)CC2)c1`
Response: inactive

Query: Provide Activity, system Cannabinoid receptor 2 (Homo sapiens) (UniProt P34972), entry `N#Cc1cccc(OC(=O)N2CCC(NC(c3ccccc3)c3ccccc3)CC2)c1`
Response: inactive

---

Biological target: Cannabinoid receptor 2 (Mus musculus)
Assay: Displacement of [3H]CP-55,940 from recombinant mouse CB2 receptor expressed in HEK293 cells at >1 uM after 1 hr by scintillation counting method
Format: cell-based
Active and inactive are the calls of the source. The calls are words filed in the database; no cut-off is given here.
READOUT_LABEL: Activity

Example results:
molecule=N#Cc1cccc(OC(=O)N2CCN(C3CC3)CC2)c1 reported_measurement=inactive
molecule=N#Cc1cccc(OC(=O)N2CCN(C3CCCCC3)CC2)c1 reported_measurement=inactive
molecule="N#Cc1cccc(OC(=O)N2CCN(C(c3ccccc3)c3cccnc3)CC2)c1 (stereo not given)" reported_measurement=inactive
molecule=COc1cc(C#N)cc(OC(=O)N2CCC(C(c3ccccc3)c3ccccc3)CC2)c1 reported_measurement=inactive

Now, please, on to the next molecule.
Query: For the molecule `N#Cc1cccc(OC(=O)N2CCN(C(c3ccc(F)cc3)c3ccc(F)cc3)CC2)c1` , report Activity.
Response: inactive
